assay: Cytotoxicity against rat FRTL5 cells assessed as effect on cell growth at 1 uM measured at 24 hrs by MTT assay; format: cell-based; conditions: frtl-5, 24 h
readout: Activity

molecule	Activity
CC1=C(C(=O)OCc2ccccc2)C(c2ccccc2)NC(=O)N1 (stereo not given)	Non-Toxic
COc1ccc(COC(=O)C2=C(C3CCCCC3)NC(=O)NC2c2ccccc2)cc1 (stereo not given)	Non-Toxic
COc1cccc(COC(=O)C2=C(C)NC(=O)NC2c2ccco2)c1 (stereo not given)	Non-Toxic
COc1ccc(COC(=O)C2=C(C)N(C)C(=O)N(C)C2c2ccco2)cc1 (stereo not given)	Non-Toxic
COc1cccc(COC(=O)C2=C(C)N(C)C(=O)N(C)C2c2ccco2)c1 (stereo not given)	Non-Toxic

Asked: Can you share its Activity? I mean this molecule: COc1ccc(COC(=O)C2=C(C)N(C)C(=O)N(C)C2c2ccco2)cc1OC (stereo not given)
Given back: Non-Toxic

Asked: Data request, read-out Activity, for CC1=C(C(=O)OCc2ccc3c(c2)OCO3)C(c2ccccc2)NC(=O)N1 (stereo not given)
Given back: Non-Toxic

Asked: For the molecule COc1ccc(COC(=O)C2=C(C)NC(=O)NC2c2cccc(Cl)c2)cc1 (stereo not given) , what Activity is on record?
Given back: Non-Toxic

Asked: Requested field: Activity. Item: COc1ccc(COC(=O)C2=C(C)NC(=O)NC2c2ccccc2F)cc1 (stereo not given)
Given back: Non-Toxic

Asked: If you can, please state the reported Activity value of COc1ccc(COC(=O)C2=C(C)NC(=S)NC2c2ccccc2)cc1 (stereo not given) .
Given back: Non-Toxic
